# ASSAY: Volume of distribution at steady state in Sprague-Dawley rat at 1 mg/kg, iv
# Assay type: ADME, organism-based
# Set-up: dose 1 mg/kg, route intravenous
# CONDITION_CONTEXT: in vivo, read-out: Vdss
MEASURED_ENDPOINT: Vd (L/kg)

Below: 8 molecules and their reported Vd.
GIVEN_SMILES	Vd (L/kg)
CNc1nc2ccc(-c3c(C)ccc(C(=O)c4c(-c5ccccc5)n(C)n(-c5ccccc5)c4=O)c3N)cc2s1	2
COc1cc2nccc(Oc3ccc(NC(=O)c4c(-c5ccccc5)n(C)n(-c5ccccc5)c4=O)nc3)c2cc1OC	0.73
Cc1ccc2cc(-c3c(C)ccc(C(=O)c4c(-c5ccccc5)n(C)n(-c5ccccc5)c4=O)c3N)ccc2n1	3.6
Cc1ccc(C(=O)c2c(-c3ccccc3)n(C)n(-c3ccccc3)c2=O)c(N)c1-c1ccc2nc(C(F)F)sc2c1	5
Cc1ncc2cc(-c3c(C)ccc(C(=O)c4c(-c5ccccc5)n(C)n(-c5ccccc5)c4=O)c3N)ccc2n1	2.6
Cc1ccc(C(=O)c2c(-c3ccccc3)n(C)n(-c3ccccc3)c2=O)c(N)c1-c1ccc2nc(N)sc2c1	6.5
CNc1ncc2c(Cl)c(-c3c(C)ccc(C(=O)c4c(-c5ccccc5)n(C)n(-c5ccccc5)c4=O)c3N)ccc2n1	2.7
Cc1nc2ccc(-c3c(C)ccc(C(=O)c4c(-c5ccccc5)n(C)n(-c5ccccc5)c4=O)c3N)cc2s1	3.1

1: Cc1nc(N)c2c(-c3ccc4c(c3)CCN4C(=O)Cc3cc(F)cc(C(F)(F)F)c3)cn(C)c2n1
2: CNc1ncc2cc(-c3cc(C(=O)c4c(-c5ccccc5)n(C)n(-c5ccccc5)c4=O)ccc3N)ccc2n1
3: Cc1ccc(C(=O)c2c(-c3ccccc3)n(C)n(-c3ccccc3)c2=O)c(N)c1-c1ccc2nc(C(F)(F)F)sc2c1
4: CNc1ncc2c(F)c(-c3c(C)ccc(C(=O)c4c(-c5ccccc5)n(C)n(-c5ccccc5)c4=O)c3N)ccc2n1
Q) Please list the entries, largest Vd first. Returns: the labels arranged in the requested order.
A) 3, 4, 1, 2

---

# ASSAY: AUC in CD1 mouse at 2.5 mg/kg, po compound dosed in 1% Pluronic F68/1% HPMC/15% Captisol/83% H2O with MsOH at pH 2
# Type: ADME, organism-based
# Design: dose 2.5 mg/kg, route oral
# CONDITION_CONTEXT: plasma
MEASURED_ENDPOINT: AUC (µM·h)
# number only, unit µM·h dropped from output

Record Cc1ccc2cc(-c3c(C)ccc(C(=O)c4c(-c5ccccc5)n(C)n(-c5ccccc5)c4=O)c3N)ccc2n1 . Reported AUC: 8.8

---

# ASSAY: AUC in Sprague-Dawley rat at 2.5 mg/kg, po compound dosed in 1% Pluronic F68/1% HPMC/15% Captisol/83% H2O with MsOH at pH 2
# Type: ADME, organism-based
# Parameters: dose 2.5 mg/kg, route oral
# CONDITION_CONTEXT: plasma
MEASURED_ENDPOINT: AUC (µM·h)

Below: 2 compounds and their reported AUC.
GIVEN_SMILES	OBSERVED_RESULT
Cc1ccc(C(=O)c2c(-c3ccccc3)n(C)n(-c3ccccc3)c2=O)c(N)c1-c1ccc2nc(C(F)(F)F)sc2c1	3.2
Cc1nc2ccc(-c3c(C)ccc(C(=O)c4c(-c5ccccc5)n(C)n(-c5ccccc5)c4=O)c3N)cc2s1	0.1

1: Cc1ncc2cc(-c3c(C)ccc(C(=O)c4c(-c5ccccc5)n(C)n(-c5ccccc5)c4=O)c3N)ccc2n1
2: Cc1ccc(C(=O)c2c(-c3ccccc3)n(C)n(-c3ccccc3)c2=O)c(N)c1-c1ccc2nc(C(F)F)sc2c1
Q) Lowest AUC? choose 1 or 2 Lab note: record the label of whichever item you select.
A) 1

a: Cc1ccc2cc(-c3c(C)ccc(C(=O)c4c(-c5ccccc5)n(C)n(-c5ccccc5)c4=O)c3N)ccc2n1
b: CNc1nc2ccc(-c3c(C)ccc(C(=O)c4c(-c5ccccc5)n(C)n(-c5ccccc5)c4=O)c3N)cc2s1
Q) Lowest AUC? choose a or b Lab note: record the label of whichever item you select.
A) a

a: Cc1ccc(C(=O)c2c(-c3ccccc3)n(C)n(-c3ccccc3)c2=O)c(N)c1-c1ccc2nc(N)sc2c1
b: CNc1ncc2c(F)c(-c3c(C)ccc(C(=O)c4c(-c5ccccc5)n(C)n(-c5ccccc5)c4=O)c3N)ccc2n1
c: Cc1nc(N)c2c(-c3ccc4c(c3)CCN4C(=O)Cc3cc(F)cc(C(F)(F)F)c3)cn(C)c2n1
Q) Order by AUC, ascending. Returns: the labels arranged in the requested order.
A) a, b, c
(a: 1 µM·h, b: 3.8 µM·h, c: 23.6 µM·h)

---

# ASSAY: Mean residence time in Sprague-Dawley rat at 1 mg/kg, iv
# Format: ADME, organism-based
# Set-up: dose 1 mg/kg, route intravenous
# CONDITION_CONTEXT: in vivo
MEASURED_ENDPOINT: MRT (h)

GIVEN_SMILES	MRT [h]
Cc1ccc(C(=O)c2c(-c3ccccc3)n(C)n(-c3ccccc3)c2=O)c(N)c1-c1ccc2nc(C(F)(F)F)sc2c1	10.8
CNc1ncc2c(Cl)c(-c3c(C)ccc(C(=O)c4c(-c5ccccc5)n(C)n(-c5ccccc5)c4=O)c3N)ccc2n1	5.5
COc1cc2nccc(Oc3ccc(NC(=O)c4c(-c5ccccc5)n(C)n(-c5ccccc5)c4=O)nc3)c2cc1OC	10.4
CNc1nc2ccc(-c3c(C)ccc(C(=O)c4c(-c5ccccc5)n(C)n(-c5ccccc5)c4=O)c3N)cc2s1	3.1

I: Cc1nc2ccc(-c3c(C)ccc(C(=O)c4c(-c5ccccc5)n(C)n(-c5ccccc5)c4=O)c3N)cc2s1
II: Cc1nc(N)c2c(-c3ccc4c(c3)CCN4C(=O)Cc3cc(F)cc(C(F)(F)F)c3)cn(C)c2n1
III: CNc1ncc2c(F)c(-c3c(C)ccc(C(=O)c4c(-c5ccccc5)n(C)n(-c5ccccc5)c4=O)c3N)ccc2n1
IV: Cc1ncc2cc(-c3c(C)ccc(C(=O)c4c(-c5ccccc5)n(C)n(-c5ccccc5)c4=O)c3N)ccc2n1
Q) Please list the entries, largest MRT first. Returns: the labels arranged in the requested order.
A) II, III, I, IV
(II: 11.9 h, III: 3.9 h, I: 2.2 h, IV: 1.4 h)

---

# ASSAY: Oral bioavailability in Sprague-Dawley rat at 2.5 mg/kg compound dosed in 1% Pluronic F68/1% HPMC/15% Captisol/83% H2O with MsOH at pH 2
# Assay type: ADME, organism-based
# CONDITION_CONTEXT: in vivo
MEASURED_ENDPOINT: bioavailability (%)

GIVEN_SMILES	READOUT_UNIT	bioavailability
CNc1nc2ccc(-c3c(C)ccc(C(=O)c4c(-c5ccccc5)n(C)n(-c5ccccc5)c4=O)c3N)cc2s1	%	35

1: CNc1ncc2c(F)c(-c3c(C)ccc(C(=O)c4c(-c5ccccc5)n(C)n(-c5ccccc5)c4=O)c3N)ccc2n1
2: Cc1ncc2cc(-c3c(C)ccc(C(=O)c4c(-c5ccccc5)n(C)n(-c5ccccc5)c4=O)c3N)ccc2n1
3: Cc1nc2ccc(-c3c(C)ccc(C(=O)c4c(-c5ccccc5)n(C)n(-c5ccccc5)c4=O)c3N)cc2s1
Q) Order by bioavailability, ascending. Returns: the labels arranged in the requested order.
A) 3, 1, 2

---

# ASSAY: Oral bioavailability in Sprague-Dawley rat at 2.5 mg/kg compound dosed in 1% Tween 80/2% HPMC/97% H2O with MsOH at pH 2
# Assay type: ADME, organism-based
# CONDITION_CONTEXT: in vivo
MEASURED_ENDPOINT: bioavailability (%)
# number only, unit % dropped from output

Record CNc1ncc2cc(-c3cc(C(=O)c4c(-c5ccccc5)n(C)n(-c5ccccc5)c4=O)ccc3N)ccc2n1 . Reported bioavailability: 18

---

# ASSAY: Oral bioavailability in CD1 mouse at 2.5 mg/kg compound dosed in 1% Pluronic F68/1% HPMC/15% Captisol/83% H2O with MsOH at pH 2
# Type: ADME, organism-based
# CONDITION_CONTEXT: in vivo
MEASURED_ENDPOINT: bioavailability (%)
# number only, unit % dropped from output

Record Cc1ccc2cc(-c3c(C)ccc(C(=O)c4c(-c5ccccc5)n(C)n(-c5ccccc5)c4=O)c3N)ccc2n1 . Reported bioavailability: 46

---

# ASSAY: Intrinsic clearance in rat microsomes
# Type: ADME, Microsome
MEASURED_ENDPOINT: microsomal CLint (µL/min/mg)

P: CNc1ncc2cc(-c3cc(C(=O)c4c(-c5ccccc5)n(C)n(-c5ccccc5)c4=O)ccc3Cl)ccc2n1
Q: CNc1ncc2cc(-c3cc(C(=O)c4c(-c5ccccc5)n(C)n(-c5ccccc5)c4=O)ccc3C)ccc2n1
R: CNc1ncc2cc(-c3c(C)ccc(C(=O)c4c(-c5ccccc5)n(C)n(-c5ccccc5)c4=O)c3N)ccc2n1
Q) I'd appreciate it if you sorted the entries above by their microsomal CLint, lowest to highest. Returns: the labels arranged in the requested order.
A) R, P, Q
(R: 29 µL/min/mg, P: 167 µL/min/mg, Q: 497 µL/min/mg)

Values were extracted from ChEMBL document CHEMBL3407336.
